target: SMARCA2 (Homo sapiens); construct: endogenous in cells; experiment: SMARCA2 HiBiT degradation assay (cellular); assay type: cell-based; settings: SMARCA2 HiBiT cells, luminescence readout, 11-point titration from 10 μM, 6 hours or 16 hours; read-out: HiBit A549 SMARCA2 IP
Sequence (P51531 whole entry): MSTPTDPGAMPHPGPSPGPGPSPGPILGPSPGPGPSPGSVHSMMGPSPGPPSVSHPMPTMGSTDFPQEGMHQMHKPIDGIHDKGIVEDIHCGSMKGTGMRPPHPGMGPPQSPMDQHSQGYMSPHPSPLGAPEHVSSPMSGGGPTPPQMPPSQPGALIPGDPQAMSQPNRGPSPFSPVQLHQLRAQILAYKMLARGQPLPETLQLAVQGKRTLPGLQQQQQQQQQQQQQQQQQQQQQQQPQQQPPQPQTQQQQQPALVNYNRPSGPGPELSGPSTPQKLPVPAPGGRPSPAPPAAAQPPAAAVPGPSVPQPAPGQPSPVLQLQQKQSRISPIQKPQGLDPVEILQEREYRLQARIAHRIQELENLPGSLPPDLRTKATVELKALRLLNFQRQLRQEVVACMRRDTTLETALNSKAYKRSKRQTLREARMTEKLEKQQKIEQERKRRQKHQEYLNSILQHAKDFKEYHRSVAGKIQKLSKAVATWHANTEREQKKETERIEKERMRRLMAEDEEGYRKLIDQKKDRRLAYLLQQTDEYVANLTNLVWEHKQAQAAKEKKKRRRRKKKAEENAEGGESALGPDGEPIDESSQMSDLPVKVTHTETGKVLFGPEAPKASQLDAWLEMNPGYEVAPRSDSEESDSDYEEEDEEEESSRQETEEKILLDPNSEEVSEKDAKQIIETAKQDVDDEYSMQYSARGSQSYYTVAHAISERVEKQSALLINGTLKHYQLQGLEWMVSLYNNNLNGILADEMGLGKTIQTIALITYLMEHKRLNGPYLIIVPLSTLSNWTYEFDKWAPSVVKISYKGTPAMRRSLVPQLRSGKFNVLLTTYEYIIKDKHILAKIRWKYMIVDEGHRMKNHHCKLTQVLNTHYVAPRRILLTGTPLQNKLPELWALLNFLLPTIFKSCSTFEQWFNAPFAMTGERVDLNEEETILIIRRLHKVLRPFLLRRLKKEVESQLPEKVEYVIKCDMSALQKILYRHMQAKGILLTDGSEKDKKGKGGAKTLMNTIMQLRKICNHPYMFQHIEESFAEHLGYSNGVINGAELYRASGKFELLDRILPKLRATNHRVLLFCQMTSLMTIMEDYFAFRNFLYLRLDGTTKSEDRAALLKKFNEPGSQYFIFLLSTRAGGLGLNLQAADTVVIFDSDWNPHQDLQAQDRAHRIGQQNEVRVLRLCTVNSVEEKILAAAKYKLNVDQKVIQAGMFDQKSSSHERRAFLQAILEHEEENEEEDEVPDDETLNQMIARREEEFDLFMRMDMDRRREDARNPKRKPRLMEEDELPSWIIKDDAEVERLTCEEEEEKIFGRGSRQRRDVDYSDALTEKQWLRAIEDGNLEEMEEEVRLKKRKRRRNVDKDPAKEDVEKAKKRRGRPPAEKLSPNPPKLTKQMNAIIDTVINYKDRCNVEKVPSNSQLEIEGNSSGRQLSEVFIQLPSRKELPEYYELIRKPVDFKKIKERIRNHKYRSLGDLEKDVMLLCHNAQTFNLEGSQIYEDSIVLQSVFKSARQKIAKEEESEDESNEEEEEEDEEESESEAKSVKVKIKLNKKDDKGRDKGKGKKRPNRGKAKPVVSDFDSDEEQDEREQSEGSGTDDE
TEST_READOUT: DC50 (nM)

| MOLECULE | OUTPUT_UNIT | DC50 |
| --- | --- | --- |
| Cc1ncsc1-c1ccc([C@H](C)NC(=O)[C@@H]2C[C@@H](O)CN2C(=O)[C@@H](NC(=O)CCC(=O)N2CCOC3(CCN(c4cc(-c5ccccc5O)nnc4N)CC3)C2)C(C)(C)C)cc1 | nM | 561 |
| Cc1ncsc1-c1ccc([C@H](C)NC(=O)[C@@H]2C[C@@H](O)CN2C(=O)[C@@H](NC(=O)CCCCCCCCC(=O)N2CCN(C(=O)c3ccc(OC4CN(c5cc(-c6ccccc6O)nnc5N)C4)cc3)CC2)C(C)(C)C)cc1 | nM | 375 |
| Cc1ncsc1-c1ccc([C@H](C)NC(=O)[C@@H]2C[C@@H](O)CN2C(=O)[C@@H](NC(=O)CCCCCCCCC(=O)N2CCN(C(=O)c3cccc(OC4CN(c5cc(-c6ccccc6O)nnc5N)C4)c3)CC2)C(C)(C)C)cc1 | nM | 101 |

P: Cc1ncsc1-c1ccc([C@H](C)NC(=O)[C@@H]2C[C@@H](O)CN2C(=O)[C@@H](NC(=O)CCC(=O)N2CCN(CCOc3cccc(N4CCCC(Oc5cc(-c6ccccc6O)nnc5N)C4)c3)CC2)C(C)(C)C)cc1 (mixture of isomers)
Q: Cc1ncsc1-c1ccc([C@H](C)NC(=O)[C@@H]2C[C@@H](O)CN2C(=O)[C@@H](NC(=O)CCCCCC(=O)N2CCN(c3cccc(N4CCCC(Oc5cc(-c6ccccc6O)nnc5N)C4)c3)CC2)C(C)(C)C)cc1 (mixture of isomers)
q: Which gives the smaller DC50 number: P or Q ? Which one? Tell me its label.
a: Q
(Q: 1320 nM, P: 2110 nM)

P: Cc1ncsc1-c1ccc(CNC(=O)[C@@H]2C[C@@H](O)CN2C(=O)[C@@H](NC(=O)CCCCCCCCC(=O)N2CCN(c3cc(-c4ccccc4O)nnc3N)CC2)C(C)(C)C)cc1
Q: Cc1ncsc1-c1ccc([C@H](C)NC(=O)[C@@H]2C[C@@H](O)CN2C(=O)[C@@H](NC(=O)CCOCCC(=O)N(C)CC(COc2cc(-c3ccccc3O)nnc2N)c2ccccc2)C(C)(C)C)cc1 (mixture of isomers)
R: Cc1ncsc1-c1ccc(CNC(=O)[C@@H]2C[C@@H](O)CN2C(=O)[C@@H](NC(=O)CCCCCCCCCCC(=O)N2CCN(Cc3cccc(C#Cc4cc(-c5ccccc5O)nnc4N)c3)CC2)C(C)(C)C)cc1
S: Cc1ncsc1-c1ccc([C@H](C)NC(=O)[C@@H]2C[C@@H](O)CN2C(=O)[C@@H](NC(=O)CCCCCCNC(=O)C(c2ccccc2)n2cc(-c3cc(-c4ccccc4O)nnc3N)cn2)C(C)(C)C)cc1 (mixture of isomers)
T: Cc1ncsc1-c1ccc([C@H](C)NC(=O)[C@@H]2C[C@@H](O)CN2C(=O)[C@@H](NC(=O)CCCCCC(=O)N2CCN(CCOc3ccc(N4CCCC(Oc5cc(-c6ccccc6O)nnc5N)C4)cc3)CC2)C(C)(C)C)cc1 (mixture of isomers)
q: Arrange the 5 molecules by rising DC50, starting with the smallest. Answer with the labels in sequence, matching the requested order.
a: T, R, S, Q, P
(T: 244 nM, R: 503 nM, S: 777 nM, Q: 1660 nM, P: 2780 nM)

1: Cc1ncsc1-c1ccc(CNC(=O)[C@@H]2C[C@@H](O)CN2C(=O)[C@@H](NC(=O)CCCCCCCCC(=O)N2CCN(c3cc(-c4ccccc4O)nnc3N)CC2C)C(C)(C)C)cc1 (some centres unmarked)
2: Cc1ncsc1-c1ccc([C@H](C)NC(=O)[C@@H]2C[C@@H](O)CN2C(=O)[C@@H](NC(=O)CCCCCC(=O)N2CCN(C(=O)c3ccc(OC4CN(c5cc(-c6ccccc6O)nnc5N)C4)cc3)CC2)C(C)(C)C)cc1
3: Cc1ncsc1-c1ccc(CNC(=O)[C@@H]2C[C@@H](O)CN2C(=O)[C@@H](NC(=O)CCCCCCCCC(=O)NC(COc2cc(-c3ccccc3O)nnc2N)c2ccccc2)C(C)(C)C)cc1 (mixture of isomers)
q: Hey, quick one: sort these by DC50, largest value first please. Return the labels ranked in the requested order, please.
a: 1, 2, 3
(1: 2930 nM, 2: 1890 nM, 3: 798 nM)

The reported measurements were obtained from patent US20230002367A1.
